conditions: human gut metagenome, 24 h, 2 µM; further: call rule not given here
quantity_measured: Bacterial Biotransformation

{"compound": "COc1ccc2cc([C@H](C)C(=O)O)ccc2c1 [NAPROXEN]", "test_value": "Compound metabolized"}
{"compound": "CC(=O)OCC(=O)[C@@]1(OC(C)=O)[C@@H](C)C[C@H]2[C@@H]3C[C@H](F)C4=CC(=O)C=C[C@]4(C)[C@@]3(F)[C@@H](O)C[C@@]21C [DIFLORASONE DIACETATE]", "test_value": "Compound metabolized"}
{"compound": "Nc1nc(N)nc(-c2cc(Cl)ccc2Cl)n1.O=C(O)/C=C\\C(=O)O [IRSOGLADINE MALEATE]", "test_value": "Compound NOT metabolized"}
{"compound": "CCOC(=O)C1=C[C@]2(CC)CCCN3CCc4c(n1c1ccccc41)[C@@H]32 [VINPOCETINE]", "test_value": "Compound metabolized"}
{"compound": "CN(C)CCc1c[nH]c2ccc(CS(=O)(=O)N3CCCC3)cc12 [ALMOTRIPTAN]", "test_value": "Compound NOT metabolized"}

Quick check: Bacterial Biotransformation of CC(NC(C)(C)C)C(=O)c1cccc(Cl)c1 (centres undefined) [BUPROPION] ? Compound NOT metabolized

Next entry: CC(C)c1nc(N(C)S(C)(=O)=O)nc(-c2ccc(F)cc2)c1/C=C/[C@@H](O)C[C@@H](O)CC(=O)[O-].CC(C)c1nc(N(C)S(C)(=O)=O)nc(-c2ccc(F)cc2)c1/C=C/[C@@H](O)C[C@@H](O)CC(=O)[O-].[Ca+2] [ROSUVASTATIN CALCIUM] Compound NOT metabolized

----------
conditions: human gut metagenome, 24 h, 2 µM
quantity_measured: Bacterial Biotransformation

Some solved entries appear below for comparison.
{"compound": "COc1ccc(/C=C/C(=O)Nc2ccccc2C(=O)O)cc1OC", "test_value": "Compound NOT metabolized"}
{"compound": "CN(C/C=C/C#CC(C)(C)C)Cc1cccc2ccccc12 [TERBINAFINE]", "test_value": "Compound metabolized"}
{"compound": "COc1ccc2c(c1)c(CC(=O)O)c(C)n2C(=O)c1ccc(Cl)cc1 [INDOMETHACIN]", "test_value": "Compound metabolized"}
{"compound": "CN(C)CCC=C1c2ccccc2COc2ccccc21 [DOXEPIN]", "test_value": "Compound metabolized"}
{"compound": "O=C(O)c1cc(/N=N/c2ccc(S(=O)(=O)Nc3ccccn3)cc2)ccc1O [SULFASALAZINE]", "test_value": "Compound metabolized"}
{"compound": "N[C@@H](Cc1ccc(N(CCCl)CCCl)cc1)C(=O)O", "test_value": "Compound NOT metabolized"}

Quick check: Bacterial Biotransformation of O=C1CN2Cc3c(ccc(Cl)c3Cl)N=C2N1 [ANAGRELIDE] ? Compound NOT metabolized

----------
experiment: The drug is tested on Z-013 corresponding to rabbit gut metagenome with ENA study accession number: PRJEB37062 and ENA sample accession number: ERS12561813 for biotransformation under anaerobic condition. The drug concentrations were measured over 9 timepoints collected between 0 and 24 hours of incubation by liquid-chromatography-coupled mass spectrometry (LC–MS); details: 2 µM
quantity_measured: Bacterial Biotransformation

{"compound": "CC(CCc1ccccc1)NCC(O)c1ccc(O)c(C(N)=O)c1 (stereo unspecified)", "test_value": "Compound NOT metabolized"}
{"compound": "CCN(CC)CCOC(=O)C1(C2CCCCC2)CCCCC1", "test_value": "Compound NOT metabolized"}
{"compound": "CN1CCN2c3ccccc3Cc3ccccc3C2C1 (stereo unspecified)", "test_value": "Compound NOT metabolized"}
{"compound": "O=P1(N(CCCl)CCCl)NCCCO1 (stereo unspecified) [CYCLOPHOSPHAMIDE ANHYDROUS]", "test_value": "Compound NOT metabolized"}
{"compound": "COc1ccccc1OCCNCC(O)COc1cccc2[nH]c3ccccc3c12 (stereo unspecified)", "test_value": "Compound NOT metabolized"}
{"compound": "CCCN1C[C@H](CSC)C[C@@H]2c3cccc4[nH]cc(c34)C[C@H]21.CS(=O)(=O)O [PERGOLIDE MESYLATE]", "test_value": "Compound NOT metabolized"}
{"compound": "C[C@]12CCC(=O)C=C1[C@@H]1C[C@@H]1[C@H]1[C@@H]3[C@@H]4C[C@@H]4[C@@]4(CCC(=O)O4)[C@@]3(C)CC[C@@H]12", "test_value": "Compound metabolized"}
{"compound": "CCCN(CCC)CCc1cccc2c1CC(=O)N2", "test_value": "Compound NOT metabolized"}

Could you now look at the following compound, please?
Quick check: Bacterial Biotransformation of `CC[C@@]1(O)C(=O)OCc2c1cc1n(c2=O)Cc2cc3c(CN(C)C)c(O)ccc3nc2-1` ? Compound NOT metabolized

----------
experiment: The drug is tested on Z-026 corresponding to metagenome with ENA study accession number: PRJEB37062 and ENA sample accession number: ERS12561825 for biotransformation under anaerobic condition. The drug concentrations were measured over 9 timepoints collected between 0 and 24 hours of incubation by liquid-chromatography-coupled mass spectrometry (LC–MS); conditions: 2 µM
quantity_measured: Bacterial Biotransformation

Some solved entries appear below for comparison.
{"compound": "COC(=O)C(c1ccccc1)C1CCCCN1 (stereo unspecified) [METHYLPHENIDATE]", "Bacterial Biotransformation": "Compound NOT metabolized"}
{"compound": "CN(C)C(=O)Oc1cccc([N+](C)(C)C)c1.[Br-] [NEOSTIGMINE BROMIDE]", "Bacterial Biotransformation": "Compound NOT metabolized"}
{"compound": "COc1ccc2cc([C@H](C)C(=O)O)ccc2c1", "Bacterial Biotransformation": "Compound NOT metabolized"}
{"compound": "CC(C)(C)NC(=O)[C@H]1CC[C@H]2[C@@H]3CC[C@H]4NC(=O)C=C[C@]4(C)[C@H]3CC[C@]12C [FINASTERIDE]", "Bacterial Biotransformation": "Compound metabolized"}
{"compound": "O=C1N=C([O-])NC1(c1ccccc1)c1ccccc1.[Na+] [PHENYTOIN SODIUM]", "Bacterial Biotransformation": "Compound NOT metabolized"}

Quick check: Bacterial Biotransformation of `O=C1CCc2ccc(OCCCCN3CCN(c4cccc(Cl)c4Cl)CC3)cc2N1` ? Compound metabolized

----------
details: human gut metagenome, 24 h, 2 µM
quantity_measured: Bacterial Biotransformation

Some solved entries appear below for comparison.
{"compound": "CC(C)(C)NC(=O)[C@H]1CC[C@H]2[C@@H]3CC[C@H]4NC(=O)C=C[C@]4(C)[C@H]3CC[C@]12C [FINASTERIDE]", "Bacterial Biotransformation": "Compound metabolized"}
{"compound": "CN(C)CCc1c[nH]c2ccc(CS(=O)(=O)N3CCCC3)cc12", "Bacterial Biotransformation": "Compound NOT metabolized"}
{"compound": "CN1CCN(C2=Nc3ccccc3Oc3ccc(Cl)cc32)CC1.O=C(O)CCC(=O)O [LOXAPINE SUCCINATE]", "Bacterial Biotransformation": "Compound NOT metabolized"}
{"compound": "Cc1cc(C)cc(OCC2CNC(=O)O2)c1 (centres undefined)", "Bacterial Biotransformation": "Compound metabolized"}
{"compound": "COC(=O)[C@H](c1ccccc1Cl)N1CCc2sccc2C1.O=S(=O)(O)O [CLOPIDOGREL BISULFATE]", "Bacterial Biotransformation": "Compound metabolized"}

Quick check: Bacterial Biotransformation of CCN(CC)C(=O)C1(c2ccccc2)CC1CN (centres undefined) ? Compound NOT metabolized

Next entry: C[N+]12CCC(CC1)C(OC(=O)C(O)(c1ccccc1)c1ccccc1)C2.[Br-] (centres undefined) [CLIDINIUM BROMIDE] Compound NOT metabolized

Next entry: `CCCN(CCC)CCc1cccc2c1CC(=O)N2` Compound NOT metabolized

----------
test: The drug is tested on Z-001 corresponding to mouse gut metagenome with ENA study accession number: PRJEB37062 and ENA sample accession number: ERS12561801 for biotransformation under anaerobic condition. The drug concentrations were measured over 9 timepoints collected between 0 and 24 hours of incubation by liquid-chromatography-coupled mass spectrometry (LC–MS); details: 2 µM
quantity_measured: Bacterial Biotransformation

{"compound": "CC(=O)OCC(CCn1cnc2cnc(N)nc21)COC(C)=O", "quantity_measured": "Bacterial Biotransformation", "test_value": "Compound NOT metabolized"}
{"compound": "O=C(CCCN1CCC2(CC1)C(=O)NCN2c1ccccc1)c1ccc(F)cc1", "quantity_measured": "Bacterial Biotransformation", "test_value": "Compound NOT metabolized"}
{"compound": "CN1CCC(=C2c3ccccc3CC(=O)c3sccc32)CC1.O=C(O)/C=C/C(=O)O [KETOTIFEN FUMARATE]", "quantity_measured": "Bacterial Biotransformation", "test_value": "Compound NOT metabolized"}
{"compound": "CC(=O)O[C@H]1C(=O)[C@@]2(C)[C@H]([C@H](OC(=O)c3ccccc3)[C@]3(O)C[C@H](OC(=O)[C@H](O)[C@@H](NC(=O)c4ccccc4)c4ccccc4)C(C)=C1C3(C)C)[C@]1(OC(C)=O)CO[C@@H]1C[C@@H]2O", "quantity_measured": "Bacterial Biotransformation", "test_value": "Compound NOT metabolized"}
{"compound": "CCN(CC)CCNC(=O)c1cc(S(C)(=O)=O)ccc1OC [TIAPRIDE]", "quantity_measured": "Bacterial Biotransformation", "test_value": "Compound metabolized"}

Quick check: Bacterial Biotransformation of COc1cc(NC(C)CCCN)c2ncccc2c1.O=P(O)(O)O.O=P(O)(O)O (configuration not stated) [PRIMAQUINE PHOSPHATE] ? Compound NOT metabolized

Next entry: COc1cc(C(=O)NCc2ccc(OCCN(C)C)cc2)cc(OC)c1OC [TRIMETHOBENZAMIDE] Compound NOT metabolized

Next entry: CCCN1C[C@H](CSC)C[C@@H]2c3cccc4[nH]cc(c34)C[C@H]21.CS(=O)(=O)O [PERGOLIDE MESYLATE] Compound NOT metabolized

Next entry: `CCS(=O)(=O)CCn1c([N+](=O)[O-])cnc1C` Compound metabolized

Next entry: `CCOC(=O)C1=C[C@]2(CC)CCCN3CCc4c(n1c1ccccc41)[C@@H]32` Compound NOT metabolized

Next entry: `CN1CCC(OC(c2ccccc2)c2ccccc2)CC1` Compound NOT metabolized

Next entry: CC(CCc1ccccc1)NCC(O)c1ccc(O)c(C(N)=O)c1 (configuration not stated) Compound NOT metabolized

Next entry: COc1cc2nc(N3CCN(C(=O)C4COc5ccccc5O4)CC3)nc(N)c2cc1OC.CS(=O)(=O)O (configuration not stated) [DOXAZOSIN MESYLATE] Compound NOT metabolized

The reported measurements were obtained from ChEMBL document CHEMBL5724914.
